pIC50: recorded values
# Tested on: normal human endocervical epithelial cells
# TEST METHOD NOTES: MTT cell viability assay, endocervical epithelial cells
# Assay type: cell-based
# TEST PARAMETERS: 3 h exposure, MTT, read-out: IC50[MTT] endocervical epithelial cells
pIC50: −log10 of the molar value.

MOLECULE: S=C(NCCc1ccccc1Cl)Nc1ccc(Br)cn1 [HI 253]
RESULT COMPARATOR: <
pIC50: 3.00

MOLECULE: S=C(NCCC1=CCCCC1)Nc1ccc(Cl)cn1 [HI 445]
RESULT COMPARATOR: =
pIC50: 3.73

MOLECULE: S=C(NCCC1=CCCCC1)Nc1ccc(Br)cn1 [HI 346]
RESULT COMPARATOR: =
pIC50: 3.24

MOLECULE: Fc1ccccc1CCNC(=S)Nc1ccc(Br)cn1 [HI 240]
RESULT COMPARATOR: <
pIC50: 3.00

MOLECULE: S=C(NCCc1ccccn1)Nc1ccccn1 [HI 207]
RESULT COMPARATOR: <
pIC50: 3.00
